Each entry below carries its reported Raw Data.
- TESTED_SYSTEM: CCR4 (Homo sapiens, UniProt P51679)
- Construct: host or cells: CHO-K1
- Sequence (P51679 1-360): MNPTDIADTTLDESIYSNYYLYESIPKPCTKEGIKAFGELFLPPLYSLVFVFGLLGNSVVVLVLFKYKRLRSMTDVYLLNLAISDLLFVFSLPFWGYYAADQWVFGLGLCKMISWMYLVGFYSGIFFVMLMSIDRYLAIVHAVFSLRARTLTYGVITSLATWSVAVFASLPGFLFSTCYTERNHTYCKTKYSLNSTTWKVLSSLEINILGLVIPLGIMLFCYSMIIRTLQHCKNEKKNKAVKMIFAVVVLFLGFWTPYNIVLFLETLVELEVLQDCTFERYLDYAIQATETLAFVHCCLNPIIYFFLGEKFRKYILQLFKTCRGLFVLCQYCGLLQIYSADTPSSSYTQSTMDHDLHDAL
- PROCEDURE_DETAILS: PathHunter eXpress CCR4 CHO-K1 β-Arrestin GPCR Assay, agonist format
- Type: cell-based
- MEASUREMENT_SETUP: 125 nM
OBSERVATION_TYPE: Raw Data

>>> print(df.to_string())
                              residue_codes  observation_type  assay_value
0  ACQTLCNTAEDIRCA [24-16-00-N001, bicyclic peptide ligand, TBMB scaffold, from CCR4 cell-based selection]          Raw Data        20012
1  ACPLMSSVNCTAGCA [24-13-00-N001, bicyclic peptide ligand, TBMB scaffold, from CCR4 cell-based selection]          Raw Data        22524
2  ACRAVHSLRCLTTCA [24-17-00-N001, bicyclic peptide ligand, TATA scaffold, from CCR4 cell-based selection]          Raw Data        23999
3  ACLNGCRNTNSQCA [24-11-00-N001, bicyclic peptide ligand, TATA scaffold, from CCR4 cell-based selection]          Raw Data        22195
4  ACQLTCLPPPRQPGCA [24-15-00-N001, bicyclic peptide ligand, TATA scaffold, from CCR4 cell-based selection]          Raw Data        22916
5  ACQLTCLTPARQPGCA [24-14-00-N001, bicyclic peptide ligand, TATA scaffold, from CCR4 cell-based selection]          Raw Data        21899
6  ACLSCARHGNQCA [24-12-00-N001, bicyclic peptide ligand, TATA scaffold, from CCR4 cell-based selection]          Raw Data        25288
